Measured values drawn from patent US20100099619A1 for this set.

biological target: neuropeptide Y4 receptor; assay: competition vs [125I]-hPP, Y4-transfected CHO-K1 membranes
Sequence (P50391 whole entry): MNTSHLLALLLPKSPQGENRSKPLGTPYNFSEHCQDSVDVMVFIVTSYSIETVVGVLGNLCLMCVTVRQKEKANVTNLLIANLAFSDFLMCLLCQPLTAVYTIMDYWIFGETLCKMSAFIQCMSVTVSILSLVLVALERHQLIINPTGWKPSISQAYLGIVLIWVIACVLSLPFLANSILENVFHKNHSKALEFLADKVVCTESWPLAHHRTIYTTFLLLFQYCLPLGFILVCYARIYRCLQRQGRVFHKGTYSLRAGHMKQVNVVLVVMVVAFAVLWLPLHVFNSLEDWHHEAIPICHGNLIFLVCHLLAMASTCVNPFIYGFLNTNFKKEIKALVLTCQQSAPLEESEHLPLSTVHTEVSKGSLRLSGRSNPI
Square brackets hold non-standard residues; d marks the D form. Ends that are not written are not given here. Ahx = NCCCCCC(=O)O
Metric: Y4 RBA (nM)
Write the answer as a number in nM, unit excluded.

Use the examples below as a reference point.
| Binder | Val |
| --- | --- |
| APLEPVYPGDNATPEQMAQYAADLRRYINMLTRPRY (modifications not checked) [PP (human pancreatic polypeptide)] | 0.034 |
| YYASLRHYLNLVTRQRY (modifications not checked) [SEQ ID NO: 178] | 38 |
| YPIK[Ahx]ELNRYYASLRHYLNLVTRQRY (ends and bridges not checked) [PYY(1-4)Aca(16-36)] | 65 |
| EELNRYYASLRHYLNLVTRQRY (modifications not checked) [SEQ ID NO: 177] | 46 |

Pending binder:
**Q:** Can you share its Y4 RBA? I mean this binder: RHYLNLVTRQRY (modifications not checked) [SEQ ID NO: 179]
**A:** 33
